Listed next: entries and their corresponding Max response.
Organism: Mus musculus
test-description: Agonist activity expressed as percent inhibition of contraction of electrically stimulated mouse vas deferens at a concentration of 1 uM
Format: functional
Just the number please, in %, no unit attached.

compound: O=C1[C@@H]2Oc3c(O)ccc4c3[C@@]23CCN(CC2CC2)[C@H](C4)[C@]3(O)CC12Cc1ccccc1C2
Max response / %: 8
//
compound: CN1CCC23c4c5ccc(O)c4O[C@H]2C(=O)[C@@]2(CCc4ccccc4C2)C[C@H]3C1C5 (stereo not given in full)
Max response / %: 42

Query string: Fill blank: measured Max response of the compound O=C1[C@@H]2Oc3c(O)ccc4c3C23CCN(CC2CC2)C(C4)[C@]3(O)C[C@]12CCc1ccccc1C2 (stereo not given in full) is ____.
Result string: 4

Query string: Fill blank: measured Max response of the compound CN1CCC23c4c5ccc(O)c4O[C@H]2C(=O)[C@]2(CCc4ccccc4C2)C[C@H]3C1C5 (stereo not given in full) is ____.
Result string: 17

Query string: Fill blank: measured Max response of the compound O=C1[C@@H]2Oc3c(O)ccc4c3C23CCN(CC2CC2)C(C4)[C@]3(O)C[C@@]12CCc1ccccc1C2 (stereo not given in full) is ____.
Result string: 3

This collection of values is drawn from ChEMBL document CHEMBL1130152.
